All values here come from the RNAGym collection of RNA variant scans (doi:10.1126/science.aae0568).

B1: tRNA (parent)
chain: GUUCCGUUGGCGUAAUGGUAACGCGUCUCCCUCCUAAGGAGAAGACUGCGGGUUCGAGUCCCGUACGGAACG

variants of: B1; assay: yeast fitness relative to wild type (ratio to wild type); higher = fitter; tRNA-Arg(CCU), competitive growth, 37 C, YPD
Fewer inactive variants are shown than the library holds.
ENDPOINT: yeast fitness
Lab note: jot the number down without any unit.

Answered examples (5):
MUTATIONS: A37C A40C G41C
yeast fitness: 0.579
--
MUTATIONS: C33A C60G
yeast fitness: 0.613
--
MUTATIONS: A14G C34G A43C U47C
yeast fitness: 0.533
--
MUTATIONS: C30A U54C G63A
yeast fitness: 0.601
--
MUTATIONS: U35A G58C
yeast fitness: 0.634

Please find the next variant below.
*Q* Please look up its yeast fitness: C33U C34U G39C
*A* 0.605
